system: Staphylococcus epidermidis; experiment: Antibacterial activity against Staphylococcus epidermidis NCIM 2493 assessed as growth inhibition after 48 hr by NCCLS broth dilution method; format: functional; conditions: NCIM 2493, 48 h
Quantity Kind: MIC (mg/L)
One number for each entry, in mg/L.

Known results for compounds:
>  <Compound>
CCCN1C(=O)/C(=N\c2ccc(N3C(=O)c4ccc(Cl)cc4C3=O)c(C)c2)c2cc([N+](=O)[O-])ccc21

>  <Measured Value>
15

$$$$
>  <Compound>
C#CCN1C(=O)/C(=N\c2ccc(N3C(=O)c4ccc(Cl)cc4C3=O)c(C)c2)c2cc([N+](=O)[O-])ccc21

>  <Measured Value>
20

$$$$
>  <Compound>
Cc1cc(/N=C2\C(=O)N(S(C)(=O)=O)c3ccc([N+](=O)[O-])cc32)ccc1N1C(=O)c2ccc(Cl)cc2C1=O

>  <Measured Value>
10

$$$$

Below are 4 compounds. Give each one its MIC.
1. Cc1cc(/N=C2\C(=O)N(S(=O)(=O)c3ccc([N+](=O)[O-])cc3)c3ccc([N+](=O)[O-])cc32)ccc1N1C(=O)c2ccc(Cl)cc2C1=O
2. O=C(O)c1cn(C2CC2)c2cc(N3CCNCC3)c(F)cc2c1=O [CIPROFLOXACIN]
3. Cc1cc(/N=C2\C(=O)Nc3ccc(OC(F)(F)F)cc32)ccc1N1C(=O)c2ccc(Cl)cc2C1=O
4. Cc1cc(/N=C2\C(=O)N(Cc3ccccc3)c3ccc(OC(F)(F)F)cc32)ccc1N1C(=O)c2ccc(Cl)cc2C1=O

Output:
10
10
10
20

* * *

system: Proteus vulgaris; experiment: Antibacterial activity against Proteus vulgaris NCIM 2027 assessed as growth inhibition after 48 hr by NCCLS broth dilution method; type: functional; settings: NCIM 2027, 48 h
Quantity Kind: MIC
Please state the value followed by its unit.

Batch: MIC for all items listed.
1. Cc1cc(/N=C2\C(=O)N(S(=O)(=O)C(F)(F)F)c3ccc(OC(F)(F)F)cc32)ccc1N1C(=O)c2ccc(Cl)cc2C1=O
2. Cc1cc(/N=C2\C(=O)N(S(=O)(=O)c3ccc([N+](=O)[O-])cc3)c3ccc([N+](=O)[O-])cc32)ccc1N1C(=O)c2ccc(Cl)cc2C1=O
3. Cc1cc(/N=C2\C(=O)Nc3ccc(OC(F)(F)F)cc32)ccc1N1C(=O)c2ccc(Cl)cc2C1=O
4. Cc1cc(/N=C2\C(=O)N(S(=O)(=O)c3ccc([N+](=O)[O-])cc3)c3ccc(OC(F)(F)F)cc32)ccc1N1C(=O)c2ccc(Cl)cc2C1=O

Output:
1: 10 µg/mL; 2: 15 µg/mL; 3: 15 µg/mL; 4: 10 µg/mL

Below are some compounds; for each one, tell me its MIC.
1. C#CCN1C(=O)/C(=N\c2ccc(N3C(=O)c4ccc(Cl)cc4C3=O)c(C)c2)c2cc(OC(F)(F)F)ccc21
2. O=C(O)c1cn(C2CC2)c2cc(N3CCNCC3)c(F)cc2c1=O
3. Cc1cc(/N=C2\C(=O)Nc3ccc([N+](=O)[O-])cc32)ccc1N1C(=O)c2ccc(Cl)cc2C1=O

Output:
1. 15 µg/mL
2. 10 µg/mL
3. 15 µg/mL

For every item in the list below, what is its measured MIC?
1. CCCN1C(=O)/C(=N\c2ccc(N3C(=O)c4ccc(Cl)cc4C3=O)c(C)c2)c2cc([N+](=O)[O-])ccc21
2. C#CCN1C(=O)/C(=N\c2ccc(N3C(=O)c4ccc(Cl)cc4C3=O)c(C)c2)c2cc([N+](=O)[O-])ccc21
3. Cc1ccc2c(c1)/C(=N/c1ccc(N3C(=O)c4ccc(Cl)cc4C3=O)c(C)c1)C(=O)N2
4. Cc1cc(/N=C2\C(=O)N(Cc3ccccc3)c3ccc(OC(F)(F)F)cc32)ccc1N1C(=O)c2ccc(Cl)cc2C1=O
5. Cc1cc(/N=C2\C(=O)N(Cc3ccccc3)c3ccc([N+](=O)[O-])cc32)ccc1N1C(=O)c2ccc(Cl)cc2C1=O
6. Cc1cc(/N=C2\C(=O)N(S(C)(=O)=O)c3ccc([N+](=O)[O-])cc32)ccc1N1C(=O)c2ccc(Cl)cc2C1=O
7. Cc1cc(/N=C2\C(=O)N(S(C)(=O)=O)c3ccc(OC(F)(F)F)cc32)ccc1N1C(=O)c2ccc(Cl)cc2C1=O

Output:
["20 µg/mL", "20 µg/mL", "20 µg/mL", "20 µg/mL", "15 µg/mL", "15 µg/mL", "15 µg/mL"]

* * *

tested on: Pseudomonas aeruginosa; experiment: Antibacterial activity against Pseudomonas aeruginosa NCIM 2036 assessed as growth inhibition after 48 hr by NCCLS broth dilution method; type: functional; conditions: NCIM 2036, 48 h
Quantity Kind: MIC (µg/mL)
Numbers only, in µg/mL.

Check out these entries, answers already filled in.
>  <Record Smiles>
C#CCN1C(=O)/C(=N\c2ccc(N3C(=O)c4ccc(Cl)cc4C3=O)c(C)c2)c2cc([N+](=O)[O-])ccc21

>  <MIC (µg/mL)>
15

$$$$
>  <Record Smiles>
O=C(O)c1cn(C2CC2)c2cc(N3CCNCC3)c(F)cc2c1=O

>  <MIC (µg/mL)>
10

$$$$
>  <Record Smiles>
Cc1cc(/N=C2\C(=O)N(S(C)(=O)=O)c3ccc(OC(F)(F)F)cc32)ccc1N1C(=O)c2ccc(Cl)cc2C1=O

>  <MIC (µg/mL)>
15

$$$$
>  <Record Smiles>
Cc1cc(/N=C2\C(=O)N(S(=O)(=O)c3ccc([N+](=O)[O-])cc3)c3ccc([N+](=O)[O-])cc32)ccc1N1C(=O)c2ccc(Cl)cc2C1=O

>  <MIC (µg/mL)>
10

$$$$
>  <Record Smiles>
Cc1cc(/N=C2\C(=O)Nc3ccc(OC(F)(F)F)cc32)ccc1N1C(=O)c2ccc(Cl)cc2C1=O

>  <MIC (µg/mL)>
10

$$$$
>  <Record Smiles>
Cc1cc(/N=C2\C(=O)Nc3ccc([N+](=O)[O-])cc32)ccc1N1C(=O)c2ccc(Cl)cc2C1=O

>  <MIC (µg/mL)>
10

$$$$
>  <Record Smiles>
Cc1cc(/N=C2\C(=O)N(Cc3ccccc3)c3ccc(OC(F)(F)F)cc32)ccc1N1C(=O)c2ccc(Cl)cc2C1=O

>  <MIC (µg/mL)>
20

$$$$
>  <Record Smiles>
Cc1cc(/N=C2\C(=O)N(S(=O)(=O)c3ccc([N+](=O)[O-])cc3)c3ccc(OC(F)(F)F)cc32)ccc1N1C(=O)c2ccc(Cl)cc2C1=O

>  <MIC (µg/mL)>
10

$$$$

Need MIC for each of these molecules.
1. C#CCN1C(=O)/C(=N\c2ccc(N3C(=O)c4ccc(Cl)cc4C3=O)c(C)c2)c2cc(OC(F)(F)F)ccc21
2. Cc1cc(/N=C2\C(=O)N(S(C)(=O)=O)c3ccc([N+](=O)[O-])cc32)ccc1N1C(=O)c2ccc(Cl)cc2C1=O
3. CCCN1C(=O)/C(=N\c2ccc(N3C(=O)c4ccc(Cl)cc4C3=O)c(C)c2)c2cc([N+](=O)[O-])ccc21
4. Cc1ccc2c(c1)/C(=N/c1ccc(N3C(=O)c4ccc(Cl)cc4C3=O)c(C)c1)C(=O)N2

Output:
[15, 10, 20, 15]

Okay, here is my list. What is MIC for each of these?
1. Cc1cc(/N=C2\C(=O)N(Cc3ccccc3)c3ccc([N+](=O)[O-])cc32)ccc1N1C(=O)c2ccc(Cl)cc2C1=O
2. Cc1cc(/N=C2\C(=O)N(S(=O)(=O)C(F)(F)F)c3ccc(OC(F)(F)F)cc32)ccc1N1C(=O)c2ccc(Cl)cc2C1=O

Output:
1. 15
2. 15

* * *

tested on: Pseudomonas aeruginosa; assay: Antibacterial activity against Pseudomonas aeruginosa NCIM 2036 assessed as diameter of growth zone inhibition after 24 hr by disk diffusion method; type: functional
For each record, write down the corresponding diameter of the inhibition zone (DIZ).
Numbers only, in mm.

>  <Record Smiles>
Cc1cc(/N=C2\C(=O)N(Cc3ccccc3)c3ccc(OC(F)(F)F)cc32)ccc1N1C(=O)c2ccc(Cl)cc2C1=O

>  <Unit Abbreviation>
mm

>  <diameter of the inhibition zone (DIZ)>
10

$$$$

# batch: return diameter of the inhibition zone (DIZ) for each of the 3 compounds below
1. Cc1cc(/N=C2\C(=O)N(S(=O)(=O)c3ccc([N+](=O)[O-])cc3)c3ccc(OC(F)(F)F)cc32)ccc1N1C(=O)c2ccc(Cl)cc2C1=O
2. Cc1cc(/N=C2\C(=O)N(S(=O)(=O)C(F)(F)F)c3ccc(OC(F)(F)F)cc32)ccc1N1C(=O)c2ccc(Cl)cc2C1=O
3. Cc1cc(/N=C2\C(=O)Nc3ccc(OC(F)(F)F)cc32)ccc1N1C(=O)c2ccc(Cl)cc2C1=O

Output:
[18, 12, 20]

* * *

system: Staphylococcus aureus; assay: Antibacterial activity against Staphylococcus aureus NCIM 2079 assessed as diameter of growth zone inhibition after 24 hr by disk diffusion method; type: functional
Quantity Kind: diameter of the inhibition zone (DIZ) (mm)
One number for each entry, in mm.

>  <Compound>
Cc1cc(/N=C2\C(=O)N(S(C)(=O)=O)c3ccc(OC(F)(F)F)cc32)ccc1N1C(=O)c2ccc(Cl)cc2C1=O

>  <Subject Of Test>
Staphylococcus aureus

>  <Quantity Kind>
diameter of the inhibition zone (DIZ)

>  <Unit Abbreviation>
mm

>  <Measured Value>
16

$$$$
>  <Compound>
C#CCN1C(=O)/C(=N\c2ccc(N3C(=O)c4ccc(Cl)cc4C3=O)c(C)c2)c2cc([N+](=O)[O-])ccc21

>  <Subject Of Test>
Staphylococcus aureus

>  <Quantity Kind>
diameter of the inhibition zone (DIZ)

>  <Unit Abbreviation>
mm

>  <Measured Value>
13

$$$$

Input: Lab note: need diameter of the inhibition zone (DIZ) with Staphylococcus aureus for entry O=C(O)c1cn(C2CC2)c2cc(N3CCNCC3)c(F)cc2c1=O [CIPROFLOXACIN] , please look it up.
Output: 26
